Tested on: L1210 leukemia ip in BDF1 mice, survival T/C
Experiment: NCI In Vivo Anticancer Drug Screen. Data for tumor model L1210 Leukemia (intraperitoneal) in B6D2F1 (BDF1) mice
Conditions: endpoint: mean survival time; dose: 100.0 mg/kg/injection; schedule: Q04DX003 (ip); vehicle: saline with Tween-80; higher = longer survival
Description: The antitumor activity of compounds was measured in mice bearing transplantable tumors. Survival or tumor size were measured and the results are expressed as the measurement made in the treated group (T) divided by the measurement made in the vehicle treated control group (C). The tumor model used in this assay is L1210 Leukemia (intraperitoneal) in B6D2F1 (BDF1) mice
Toxic doses and inconclusive results are not listed.
I'd appreciate it if you could supply T/C values for the items below.

Field T/C (entry CC(=O)Nc1cc(C(=O)O)cc(NC(C)=O)c1C ) reads 103 % of control

Field T/C (entry CCCCCCCCNc1ccccc1 ) reads 95 % of control

Field T/C (entry O=c1cc(COc2ccccc2Cl)[nH]c(=O)[nH]1 ) reads 95 % of control

Field T/C (entry O=C(O)CCCNC(=O)C(F)(F)F ) reads 100 % of control

Field T/C (entry Cc1cccc(C(=O)CC(O)(C(F)(F)F)C(F)(F)F)n1 ) reads 92 % of control

Field T/C (entry CC(CNC(=O)OCc1ccccc1)C(=O)O (centres undefined) ) reads 96 % of control

Field T/C (entry CCC(N)C(O)C(Cl)(Cl)Cl (centres undefined) ) reads 89 % of control

Field T/C (entry CC(=O)Nc1ccc(N2CCN=N2)cc1 ) reads 97 % of control

Field T/C (entry COc1cc(-c2nc3ccccc3c(=O)o2)cc(OC)c1OC ) reads 103 % of control

Field T/C (entry CCOC(=O)C(CC)C(=O)OCC ) reads 104 % of control

Field T/C (entry Nc1ccc(-c2ccc(N)cc2Br)c(Br)c1 ) reads 95 % of control

Field T/C (entry Nc1cc(S(=O)(=O)c2ccc(O)c(N)c2)ccc1O ) reads 103 % of control

Field T/C (entry CCOC(=O)CN1C(=O)NC(C)(c2ccc(Cl)cc2)C1=O (centres undefined) ) reads 106 % of control

Field T/C (entry CC(O)c1ccc2ccccc2c1 (centres undefined) ) reads 98 % of control

Data credit: PubChem BioAssay AID248
